Readings of inhibition for the listed compounds
SYSTEM_TESTED: Hexose transporter 1 (Plasmodium falciparum)
ASSAY_OVERVIEW: ST_JUDE_LEISH: Cytotoxicity at 2uM final concentration against transgenic Leishmania Mexicana promastigotes LmPfHT that are glucose transport deficient and complemented with the Plasmodium falciparum hexose transporter. Activity is measured by DNA content using SYBR green in vitro
Format: functional
Give the value in % but do not write % after it.

Worked set:
molecule_smiles=CC(C)CCn1c(Sc2ccc(C#N)c([N+](=O)[O-])c2)nnc1-c1ccccc1Cl measure=inhibition observed=3.76
molecule_smiles=COc1cc(Nc2ncc3c(C)nc(-c4cccc(Nc5ccc(CN6CCS(=O)(=O)CC6)cc5)c4)n3n2)cc(OC)c1OC measure=inhibition observed=5.79
molecule_smiles=COc1ccccc1N1CCN(CCCCNC(=O)c2ccc(NC(=O)c3ccc4ccccc4c3)cc2)CC1 measure=inhibition observed=1.01
molecule_smiles=CN1CCN(CCCCCNc2c3ccccc3nc3ccccc23)CC1 measure=inhibition observed=21.1
molecule_smiles=COc1cc2nc(NCc3nc4ccccc4[nH]3)nc(N)c2cc1OC measure=inhibition observed=11.9

Asked: Give me measured inhibition, please, for this compound: CCn1c(-c2nonc2N)nc2c(-c3cccc(Cl)c3)ncc(OCCCNCc3cnc(C)nc3N)c21
Given back: -3.01

Asked: Give me measured inhibition, please, for this compound: Nc1c(I)cc(C(=O)Nc2ccc3nc4c(c(N)c3c2)CCCC4)cc1I
Given back: 1.16

Asked: Give me measured inhibition, please, for this compound: COc1ccc(CN(C)CCCc2ccc(NC(=O)Cc3ccc4nc(-c5ccccc5)ccc4c3)cc2)cc1OC
Given back: 11.1
